test system: MS2 coat protein; assay: apparent KD of MS2 coat protein; higher = weaker reporter binding; conditions: Eterna round: R107; input ligand: arginine 13.2 mM
attribute-measured: apparent KD of MS2 coat protein (nM)
One number for each entry, in nM.

Please review the entries below; each comes with its answer.
sequence-text: GGGUAAGAUCCGGAUACCAGCGAACAUGAGGAUCACCCAUGUGAAAUAAGAUAGACUAAACGCCCUUGGCAGCCGAAAUAGCGUU [Same State Theophylline B GF 4]
attribute-measured: apparent KD of MS2 coat protein
reported: 17.9

sequence-text: UCGUUUGAGUCGGCCGCCACUGGUCUCAUGGUCAACAUGAGGAUCACCCAUGUAUCUUAGUUAAACAGGACCGGGACUCGAUCGA [#17 Exclusion Tryptophan B]
attribute-measured: apparent KD of MS2 coat protein
reported: 62.5

sequence-text: ACUAGGCUCGGAAACGAGCCUAGGACAGAAGGAGCGUGGAUUAACACAGGUAGGUCGCUGACAUGAGGAUCACCCAUGUAUUUAU [SSAA #5]
attribute-measured: apparent KD of MS2 coat protein
reported: 19.9

# map each sequence to its apparent KD of MS2 coat protein
1. UUCUACAUGAGGAUCACCCAUGUGGGUGAUACCAGCACUUUUUGGUGCCCUUGGCAGCACAUGAGAAUGCCGUAAAAUCGGCGAU [Ceanteis]
2. AAUAAACAUGAGGAUCACCCAUGUUGUUGACGAGGACCGGUACGGCCGCCACUCGACAUGAGGAUCACCCAUGUUGUCACAUGAG [Same State Tryptophan A]
3. AUGGUAAGAACAUGAGGAUCACCCAUGUGACGAGGACCGGUACGGCCGCCACUCGUACCUUAGUCGUCGAACAGAGGAUUCAUGU [Trypt A-MS2@10]
4. AAUUCCUCACAUGAGGAUCACCCAUGUGAAGGAGCGCCGAAUAAGGCAGGUAGGUCGCACAUGGAAACCGCUGCGAAAGCAGCAA [MAT - Exclusion Arginine A - Mod of Eli - D25]
5. AAACAUGAGGAUCACCCAUGUGGAACCGAAGGAGCGGCGCACAUGCCAGGUAGGUCGCGGGACAUGAGGACAUGAGGAUCACCCA [Same State Arginine A 3]

Output:
1: 74.7; 2: 73.1; 3: 37.1; 4: 21; 5: 45.1

###

Assign apparent KD of K4 kissing-loop reporter to each entry below.
tested on: K4 kissing-loop RNA reporter; assay: apparent KD of K4 kissing-loop reporter; higher = weaker reporter binding; conditions: Eterna round: R107; input ligand: FMN 200 uM;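 note: bound reporter read as fluorescence of individual clusters on recovered sequencing chips by microscopy, with normalized cluster intensities fitted with a binding model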
Write the figure, then the unit, nothing else.

sequence-text: AGCGUCCCUACGGCCGCCACUGGGAGUGAUGUUCCCAGGUUAGGCCUGAGGAUACUAAGGAUCGCCAGGACCGGGUAGCGACCAU [Azaonbe]
attribute-measured: apparent KD of K4 kissing-loop reporter
reported: 88.5 nM

# map each sequence to its apparent KD of K4 kissing-loop reporter
1. UGAUACCAGACUGAUACCAGCUAGUGAUGUUAGCUAAAAUCAGGGUCAAAGACCCUGUCUGGCCCUUGGCAGCAGUCUGGUAUCU [TheoBX 10 #SwitchBubble #StaticStem]
2. GCAGGACGAGGAGGAGGAUGAAUUACUGAAGGAGCGCAUAUGGUUGCAGGUAGGUCGCGGUAAACAAGUAUAGUGAUGUUAUAUC [SSArgA.P]

Output:
1: 137 nM; 2: 913 nM
